B1: SMTNL2 (parent)
chain: ETAAGKGKGEARARLKRSQSFGVA

variants of: B1; assay: protein stability index of a GFP-peptide fusion (GPS, HEK-293T) (PSI 1-6); higher = more stable; conditions: c terminus: a fixed tail appended;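 also: lentivirally expressed fusions sorted by FACS into six bins by GFP to DsRed ratio, PSI derived from sequencing read proportions per bin multiplied by bin number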
Here the recorded protein stability index is given for each entry.
Measurement Name: protein stability index

- Residue Change: "A24L"
  Measurement Name: "protein stability index"
  Numeric Value: 4.49
- Residue Change: "S20F"
  Measurement Name: "protein stability index"
  Numeric Value: 4.09
- Residue Change: "R14V"
  Measurement Name: "protein stability index"
  Numeric Value: 4.25
- Residue Change: "E10F"
  Measurement Name: "protein stability index"
  Numeric Value: 3.7
- Residue Change: "R17P"
  Measurement Name: "protein stability index"
  Numeric Value: 3.23
- Residue Change: "S18M"
  Measurement Name: "protein stability index"
  Numeric Value: 3.69
- Residue Change: "E10N"
  Measurement Name: "protein stability index"
  Numeric Value: 4.21
- Residue Change: "G9E"
  Measurement Name: "protein stability index"
  Numeric Value: 4.96
- Residue Change: "G7C"
  Measurement Name: "protein stability index"
  Numeric Value: 3.48
- Residue Change: "R14I"
  Measurement Name: "protein stability index"
  Numeric Value: 4.27
- Residue Change: "A13N"
  Measurement Name: "protein stability index"
  Numeric Value: 4.55
- Residue Change: "K8C"
  Measurement Name: "protein stability index"
  Numeric Value: 4.17
- Residue Change: "A3I"
  Measurement Name: "protein stability index"
  Numeric Value: 4.13
- Residue Change: "A24R"
  Measurement Name: "protein stability index"
  Numeric Value: 4.52
- Residue Change: "F21N"
  Measurement Name: "protein stability index"
  Numeric Value: 5
- Residue Change: "R14W"
  Measurement Name: "protein stability index"
  Numeric Value: 4.03
- Residue Change: "S20P"
  Measurement Name: "protein stability index"
  Numeric Value: 4.27
- Residue Change: "S20C"
  Measurement Name: "protein stability index"
  Numeric Value: 4.51
- Residue Change: "K8S"
  Measurement Name: "protein stability index"
  Numeric Value: 4.43
- Residue Change: "A13H"
  Measurement Name: "protein stability index"
  Numeric Value: 4.83
- Residue Change: "G5L"
  Measurement Name: "protein stability index"
  Numeric Value: 4.56
- Residue Change: "A3Q"
  Measurement Name: "protein stability index"
  Numeric Value: 4.56
